Where a name gives a salt, the structure may show the parent alone.
parameter.measured: melting point

Here are 3 compounds together with their reported answers.
> print(dat)
                                   compound          assay.result
1  Cl.NCCNC(=O)C1CCN(c2cc(-c3ccc(F)cc3)nc3ccsc23)CC1  115 to 118 °C (dec.)
2  Cl.O=C(NCc1ccccc1)C1CCN(c2cc(-c3ccccc3)nc3ccsc23)CC1  163 to 165 °C (dec.)
3  O=C(NCC1CCCO1)C1CCN(c2cc(-c3ccccc3)nc3ccsc23)CC1 (stereo not drawn) (as salt: hydrochloride)       > 210 °C (dec.)

Inquiry: Fill in: melting point of Cl.O=C(NCCO)C1CCN(c2cc(-c3ccc(F)cc3)nc3ccsc23)CC1 is ___
Reply text: 198 to 200 °C (dec.)

Inquiry: And COc1cccc(-c2cc(N3CCN(C(=O)c4ccncc4)CC3)c3sccc3n2)c1 (as salt: hydrochloride) ?
Reply text: 215 to 217 °C

Inquiry: And Cl.NCCNC(=O)C1CCN(c2cc(-c3ccccc3)nc3ccsc23)CC1 ?
Reply text: 176 to 178 °C (dec.)

Inquiry: And CC(C)(C)NC(=O)C1CCN(c2cc(-c3ccccc3)nc3ccsc23)CC1.Cl ?
Reply text: 270 to 272 °C (dec.)

Inquiry: And CCOc1ccc(-c2cc(N3CCC(C(N)=O)CC3)c3sccc3n2)cc1.Cl ?
Reply text: 211 to 213 °C (dec.)

Inquiry: And COCCNC(=O)C1CCN(c2cc(-c3ccccc3)nc3ccsc23)CC1 (as salt: hydrochloride) ?
Reply text: 157 to 160 °C (dec.)

###

Each item that follows carries a reported melting point.
Where a name gives a salt, the structure may show the parent alone.

Here are 10 molecules together with their reported answers.
> print(dat)
                                    molecule  parameter.measured          assay.result
 1  CCNC(=O)C1CCN(c2cc(-c3cccc(OC)c3)nc3ccsc23)CC1.Cl       melting point       > 230 °C (dec.)
 2  COc1cccc(-c2cc(N3CCN(C(=O)c4ccc(F)cc4)CC3)c3sccc3n2)c1 (as salt: hydrochloride)       melting point       > 174 °C (dec.)
 3  Cl.O=C(NCCO)C1CCN(c2cc(-c3ccccc3)nc3ccsc23)CC1       melting point       > 220 °C (dec.)
 4  O=C(NC1CCCC1)C1CCN(c2cc(-c3ccccc3)nc3ccsc23)CC1 (as salt: hydrochloride)       melting point  179 to 181 °C (dec.)
 5  CCNC(=O)C1CCN(c2cc(-c3ccc(F)cc3)nc3ccsc23)CC1.Cl       melting point  220 to 222 °C (dec.)
 6  CN(C)CCNC(=O)C1CCN(c2cc(-c3ccccc3)nc3ccsc23)CC1.Cl       melting point       > 150 °C (dec.)
 7  CCNC(=O)N1CCN(c2cc(-c3ccccc3)nc3ccsc23)CC1.Cl       melting point       > 240 °C (dec.)
 8  CCNC(=O)N1CCN(c2cc(-c3ccc(F)cc3)nc3ccsc23)CC1.Cl       melting point       > 147 °C (dec.)
 9  O=C(NCc1ccncc1)C1CCN(c2cc(-c3ccccc3)nc3ccsc23)CC1 (as salt: hydrochloride)       melting point  176 to 178 °C (dec.)
10  Cl.NC(=O)C1CCN(c2cc(-c3ccccc3)nc3ccsc23)CC1       melting point  303 to 305 °C (dec.)

Now for a further molecule.
Inquiry: Fill in: melting point of COCCCNC(=O)C1CCN(c2cc(-c3ccccc3)nc3ccsc23)CC1.Cl is ___
Reply text: 147 to 149 °C (dec.)

###

Counter-ions that a name gives are not always drawn.
parameter.measured: melting point

> print(dat)
                                   compound          assay.result
1  CNC(=O)C1CCN(c2cc(-c3ccccc3)nc3ccsc23)CC1.Cl       > 260 °C (dec.)
2  CCNC(=O)C1CCN(c2cc(-c3ccncc3)nc3ccsc23)CC1.Cl       > 227 °C (dec.)
3  Cl.O=C(NCCCCl)N1CCN(c2cc(-c3ccc(F)cc3)nc3ccsc23)CC1  235 to 238 °C (dec.)
4  COC(C)CNC(=O)C1CCN(c2cc(-c3ccc(F)cc3)nc3ccsc23)CC1 (stereo not drawn) (as salt: hydrochloride)  179 to 180 °C (dec.)
5  NC(=O)C1CCN(c2cc(-c3ccccc3F)nc3ccsc23)CC1         194 to 195 °C

Inquiry: Fill in: melting point of Cc1ccc(CNC(=O)C2CCN(c3cc(-c4ccccc4)nc4ccsc34)CC2)cc1.Cl is ___
Reply text: 177 to 178 °C (dec.)

Inquiry: And CCOc1ccc(-c2cc(N3CCC(C(=O)NCc4ccccn4)CC3)c3sccc3n2)cc1.Cl ?
Reply text: 178 to 180 °C (dec.)

Inquiry: And CCNC(=O)C1CCN(c2cc(-c3ccccc3)nc3cccnc23)CC1.Cl ?
Reply text: > 210 °C (dec.)

Inquiry: And CCNCCNC(=O)C1CCN(c2cc(-c3ccccc3)nc3ccsc23)CC1.Cl ?
Reply text: > 95 °C (dec.)
